experiment_notes: Phase 1b study in RYR1-Related Myopathy patients, plasma pharmacokinetics
Assay type: in vivo, human (RYR1-Related Myopathy patients)
recorded_conditions: human, plasma, po, 120 mg, 120 mg oral daily for 28 days, Day 28, n 3, arithmetic mean; read-out: AUC0-tau
reported_metric: AUC

>>> data_value("COc1ccc2c(c1)CN(Cc1ccc(C(=O)O)cc1)CCS2.O=C(O)/C=C/C(=O)O")
"272 µg·h/mL"

----------
experiment_notes: Phase 1b study in RYR1-Related Myopathy patients, plasma pharmacokinetics
Type: in vivo, human (RYR1-Related Myopathy patients)
recorded_conditions: human, plasma, po, 120 mg, single oral 120 mg, Day 1, three subjects, arithmetic mean; read-out: t½ (converted)
reported_metric: half-life (h)

>>> data_value("COc1ccc2c(c1)CN(Cc1ccc(C(=O)O)cc1)CCS2.O=C(O)/C=C/C(=O)O")
14.1

----------
experiment_notes: Phase 1 clinical trial, Part I single ascending doses, plasma pharmacokinetics
Format: in vivo, human (healthy male volunteers)
recorded_conditions: male, human, plasma; single oral dose 400 mg, Day 1, median; read-out: tmax
Experimental: A Phase 1, randomized, double-blind, placebo-controlled clinical trial was performed to assess the safety and pharmacokinetics (PK) of Compound I after single, escalating, and repeated oral doses in health male volunteers. […] The area under the plasma concentration-time curve was calculated using a combined linear and logarithmic trapezoidal rule. […] For Part I, to assess the dose effect on the PK of Compound I, the mean AUClast, and Cmax for each dose were calculated and were plotted by dose. […]
reported_metric: Tmax (h)

>>> data_value("COc1ccc2c(c1)CN(Cc1ccc(C(=O)O)cc1)CCS2.O=C(O)/C=C/C(=O)O [Compound I]")
3.5

----------
experiment_notes: Phase 1 clinical trial, Part II multiple ascending doses over 14 days, plasma pharmacokinetics
Assay type: in vivo, human (healthy male volunteers)
recorded_conditions: male, human, plasma, oral, 120 mg, 120 mg once daily, Day 1, geom. mean
reported_metric: Cmax (ng/mL)

>>> data_value("COc1ccc2c(c1)CN(Cc1ccc(C(=O)O)cc1)CCS2.O=C(O)/C=C/C(=O)O")
11500

----------
experiment_notes: Phase 1b study in RYR1-Related Myopathy patients, plasma pharmacokinetics
Format: in vivo, human (RYR1-Related Myopathy patients)
recorded_conditions: human, plasma, po, 120 mg, single oral 120 mg, Day 1; read-out: half-life, individual values (converted)
reported_metric: half-life (h)

>>> data_value("COc1ccc2c(c1)CN(Cc1ccc(C(=O)O)cc1)CCS2.O=C(O)/C=C/C(=O)O [Compound I]")
12.8

----------
experiment_notes: Phase 1 clinical trial, Part I single ascending doses, plasma pharmacokinetics
Type: in vivo, human (healthy male volunteers)
recorded_conditions: male, human, plasma; single oral dose 40 mg (Treatment A, n = 6), Day 1, geom. mean
reported_metric: AUC(0-t) (ng·h/mL)

>>> data_value("COc1ccc2c(c1)CN(Cc1ccc(C(=O)O)cc1)CCS2.O=C(O)/C=C/C(=O)O [Compound I]")
68700

----------
experiment_notes: Phase 1 clinical trial, Part I single ascending doses, plasma pharmacokinetics
Format: in vivo, human (healthy male volunteers)
recorded_conditions: male, human, plasma; single oral dose 240 mg, geom. mean; read-out: t1/2, z (converted)
reported_metric: half-life

>>> data_value("COc1ccc2c(c1)CN(Cc1ccc(C(=O)O)cc1)CCS2.O=C(O)/C=C/C(=O)O")
"1060 min"

----------
experiment_notes: Phase 1 clinical trial, Part I single ascending doses, plasma pharmacokinetics
Format: in vivo, human (healthy male volunteers)
recorded_conditions: male, human, plasma; single oral dose 160 mg, Day 1, zero to infinity, geom. mean
reported_metric: AUC (µg·h/mL)

>>> data_value("COc1ccc2c(c1)CN(Cc1ccc(C(=O)O)cc1)CCS2.O=C(O)/C=C/C(=O)O")
312

----------
experiment_notes: Phase 1 clinical trial, Part II, muscle biopsy: concentration in quadriceps muscle
Format: in vivo, human (healthy male volunteers)
recorded_conditions: male, human, quadriceps muscle / plasma, oral; 60 mg once daily, muscle Day 13 / plasma Day 14 at 3 hours post dose, geom. mean (geom. % CV); read-out: Kpu (unbound muscle concentration divided by plasma concentration)
reported_metric: Kp

>>> data_value("COc1ccc2c(c1)CN(Cc1ccc(C(=O)O)cc1)CCS2.O=C(O)/C=C/C(=O)O")
0.01

----------
experiment_notes: Phase 1b study in RYR1-Related Myopathy patients, plasma pharmacokinetics
Format: in vivo, human (RYR1-Related Myopathy patients)
recorded_conditions: human, plasma, po, 120 mg, single oral 120 mg, Day 1, three subjects, Median; read-out: Tmax
reported_metric: Tmax (h)

>>> data_value("COc1ccc2c(c1)CN(Cc1ccc(C(=O)O)cc1)CCS2.O=C(O)/C=C/C(=O)O")
3

----------
experiment_notes: Phase 1b study in RYR1-Related Myopathy patients, plasma pharmacokinetics
Assay type: in vivo, human (RYR1-Related Myopathy patients)
recorded_conditions: human, plasma, po, 200 mg, 200 mg oral daily for 28 days, three subjects, time 24 hr
reported_metric: concentration at 24 h

>>> data_value("COc1ccc2c(c1)CN(Cc1ccc(C(=O)O)cc1)CCS2.O=C(O)/C=C/C(=O)O")
"8550 ng/mL"

----------
experiment_notes: Phase 1b study in RYR1-Related Myopathy patients, plasma pharmacokinetics
Assay type: in vivo, human (RYR1-Related Myopathy patients)
recorded_conditions: human, plasma, po, 120 mg, 120 mg oral daily for 28 days, Day 28, n 3, geometric mean
reported_metric: Tmax at 28 days (h)

>>> data_value("COc1ccc2c(c1)CN(Cc1ccc(C(=O)O)cc1)CCS2.O=C(O)/C=C/C(=O)O")
4.58

----------
experiment_notes: Phase 1 clinical trial, Part I single ascending doses, plasma pharmacokinetics
Format: in vivo, human (healthy male volunteers)
recorded_conditions: male, human, plasma; single oral dose 400 mg, Day 1, zero to infinity, geom. mean
reported_metric: AUC

>>> data_value("COc1ccc2c(c1)CN(Cc1ccc(C(=O)O)cc1)CCS2.O=C(O)/C=C/C(=O)O [Compound I]")
"708 µg·h/mL"

----------
experiment_notes: Phase 1b study in RYR1-Related Myopathy patients, plasma pharmacokinetics
Type: in vivo, human (RYR1-Related Myopathy patients)
recorded_conditions: human, plasma, po, 120 mg, 120 mg oral daily, Day 28; read-out: Cmax,ss, individual values
reported_metric: Cmax

>>> data_value("COc1ccc2c(c1)CN(Cc1ccc(C(=O)O)cc1)CCS2.O=C(O)/C=C/C(=O)O")
"16900 to 21300 ng/mL"

----------
experiment_notes: Phase 1b study in RYR1-Related Myopathy patients, plasma pharmacokinetics
Type: in vivo, human (RYR1-Related Myopathy patients)
recorded_conditions: human, plasma, po, 200 mg, single oral 200 mg, three subjects, time 6 hr
reported_metric: concentration at 6 h (ng/mL)

>>> data_value("COc1ccc2c(c1)CN(Cc1ccc(C(=O)O)cc1)CCS2.O=C(O)/C=C/C(=O)O")
15900

----------
experiment_notes: Phase 1 clinical trial, Part I single ascending doses, plasma pharmacokinetics
Format: in vivo, human (healthy male volunteers)
recorded_conditions: male, human, plasma; single oral dose 80 mg, Day 1, zero to infinity, geom. mean
reported_metric: AUC (µg·h/mL)

>>> data_value("COc1ccc2c(c1)CN(Cc1ccc(C(=O)O)cc1)CCS2.O=C(O)/C=C/C(=O)O")
163

----------
experiment_notes: Phase 1 clinical trial, Part II multiple ascending doses over 14 days, plasma pharmacokinetics
Type: in vivo, human (healthy male volunteers)
recorded_conditions: male, human, plasma, oral, 60 mg, 60 mg once daily, Day 14, median; read-out: tmax
reported_metric: Tmax

>>> data_value("COc1ccc2c(c1)CN(Cc1ccc(C(=O)O)cc1)CCS2.O=C(O)/C=C/C(=O)O")
"1.45 h"

----------
experiment_notes: Phase 1b study in RYR1-Related Myopathy patients, plasma pharmacokinetics
Format: in vivo, human (RYR1-Related Myopathy patients)
recorded_conditions: human, plasma, po, 200 mg, single oral 200 mg, three subjects, time 12 hr
reported_metric: concentration at 12 h (ng/mL)

>>> data_value("COc1ccc2c(c1)CN(Cc1ccc(C(=O)O)cc1)CCS2.O=C(O)/C=C/C(=O)O [Compound I]")
10000

----------
experiment_notes: Phase 1b study in RYR1-Related Myopathy patients, plasma pharmacokinetics
Type: in vivo, human (RYR1-Related Myopathy patients)
recorded_conditions: human, plasma, po, 120 mg, 120 mg oral daily, Day 28; 4 for two participants, 6 for the third subject; read-out: Tmax,ss, individual values
reported_metric: Tmax (h)

>>> data_value("COc1ccc2c(c1)CN(Cc1ccc(C(=O)O)cc1)CCS2.O=C(O)/C=C/C(=O)O")
4

----------
experiment_notes: Phase 1b study in RYR1-Related Myopathy patients, plasma pharmacokinetics
Assay type: in vivo, human (RYR1-Related Myopathy patients)
recorded_conditions: human, plasma, po, 200 mg, 200 mg oral daily for 28 days, three subjects, time 12 hr
reported_metric: concentration at 12 h (ng/mL)

>>> data_value("COc1ccc2c(c1)CN(Cc1ccc(C(=O)O)cc1)CCS2.O=C(O)/C=C/C(=O)O")
15400

This collection of values is drawn from patent US12161650B2.
